assayed-target: T1, Monomeric monkey CD48-mmH (monkey)
T1 construct: Soluble monkey CD48 with a myc-myc-hexa-histidine C-terminal tag; the whole entry is the construct; also called mfCD48-mmH
T1 chain: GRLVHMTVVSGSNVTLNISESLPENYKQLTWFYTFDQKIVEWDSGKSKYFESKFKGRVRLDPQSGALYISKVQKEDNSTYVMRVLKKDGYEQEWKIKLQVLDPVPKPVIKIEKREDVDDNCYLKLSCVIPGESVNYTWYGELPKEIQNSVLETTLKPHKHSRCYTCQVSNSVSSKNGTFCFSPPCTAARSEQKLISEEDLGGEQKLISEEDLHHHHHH
protocol-details: SPR (Biacore), antibody captured by anti-Fc, CD48 in solution, 25 C
Below: a set of entries, each annotated with reported pKd.
Quick note: pKd means taking -log10 of the concentration in moles per liter.

H4H1771P (antibody, human IgG4, V domains shown, Human IgG4 Fc (H4H)) VH: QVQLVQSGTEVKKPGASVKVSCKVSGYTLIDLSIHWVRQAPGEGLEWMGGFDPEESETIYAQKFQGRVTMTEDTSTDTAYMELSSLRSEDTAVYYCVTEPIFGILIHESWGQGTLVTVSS VL: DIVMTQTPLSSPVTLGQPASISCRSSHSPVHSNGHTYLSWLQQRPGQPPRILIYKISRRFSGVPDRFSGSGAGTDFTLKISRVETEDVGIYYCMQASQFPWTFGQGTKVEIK    9.34

// switching to the query binder
Input: Which pKd is listed for H4H1707N (antibody, V domains shown, Human IgG4 Fc (H4H)) VH: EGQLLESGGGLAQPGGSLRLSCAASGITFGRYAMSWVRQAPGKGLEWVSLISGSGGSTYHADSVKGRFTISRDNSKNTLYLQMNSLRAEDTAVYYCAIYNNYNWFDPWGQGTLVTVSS VL: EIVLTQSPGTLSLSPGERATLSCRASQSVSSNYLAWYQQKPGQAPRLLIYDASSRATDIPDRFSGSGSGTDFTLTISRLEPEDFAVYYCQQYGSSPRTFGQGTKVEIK ?
Output: 8.90
